The measured values listed here are drawn from patent US20100093811A1.

Measured pIC50 values are reported for all entries that follow.
# target of assay: wild-type HIV-1 protease (Human immunodeficiency virus type 1 group M subtype B)
# assay procedure: Assay for inhibition of microbial expressed HIV protease
# Format: biochemical
# stated conditions: wild-type HIV-1 protease expressed in E. coli, peptide substrate, pH 5.5; read-out: Enzyme Inhibition - IC50
pIC50: −log10 of the molar value.
assay readout: pIC50

compound | data value
COC(=O)N[C@@H](Cc1ccccc1Br)C(=O)N[C@@H](C)CCC[C@@H](CO)N(C(C)C)S(=O)(=O)c1ccc(CO)cc1 [Example G13] | 9.54
CN[C@H](C(=O)N[C@H](CCC[C@@H](CO)N(CCC(C)C)S(=O)(=O)c1ccc(CO)cc1)C(C)C)C(c1ccccc1)c1ccccc1 [Example J29] | 10.41
CC[C@@H](CCC[C@@H](CO)N(C(C)C)S(=O)(=O)c1ccc(CO)cc1)NC(=O)[C@@H](N)C(c1ccccc1)c1ccccc1 [Example J36] | 10.01

###

# Test system: acute HIV infection of T-lymphoid cells
# assay procedure: Assay for inhibition of HIV replication (spread assay)
# Format: cell-based, HIV-1
# stated conditions: inhibition of HIV-1 replication, 10% FBS; read-out: Spread - IC95

molecule | measurement units | IC95
COC(=O)N[C@H](C(=O)N[C@H](CCC[C@@H](CO)N(C(C)C)S(=O)(=O)c1ccc(N)cc1)C(F)(F)F)C(c1ccccc1)c1ccccc1 [Example H3] | nM | 18
COC(=O)N[C@H](C(=O)NCCC(C)C[C@@H](CO)N(CCC(C)C)S(=O)(=O)c1ccc(C)cc1)C(c1ccccc1)c1ccccc1 (stereo partly shown) [Example B2] | nM | 368
COC(=O)N[C@H](C(=O)N[C@@H](C)CCC[C@@H](CO)N(CCC(C)C)S(=O)(=O)c1ccc(N)cc1)C(c1ccccc1)c1ccccc1 [D1(R)] | nM | 98
COC(=O)N[C@H](C(=O)NC(CO)CCCC(CO)N(CCC(C)C)S(=O)(=O)c1ccc(N)cc1)C(c1ccccc1)c1ccccc1 (single isomer, unassigned) [Example M1-7B] | nM | 230

###

# System: acute HIV infection of T-lymphoid cells
# assay procedure: Assay for inhibition of HIV replication (spread assay)
# Assay type: cell-based, HIV-1
# stated conditions: Human immunodeficiency virus 1, T-lymphoid; read-out: Spread - IC95
Where a name gives a salt, the structure may show the parent alone.
Entries are grouped by IC95 into these classes: c1: < 40 nM; c2: ≥ 40 nM and < 200 nM; c3: ≥ 200 nM

molecule | category label
CC[C@@H](CCC[C@@H](CO)N(CC(C)C)S(=O)(=O)c1ccc(CO)cc1)NC(=O)[C@@H](NC)C(c1ccccc1)c1ccccc1 [Example J24, hydrochloride] | c1
COC(=O)N[C@@H](Cc1ccccc1Br)C(=O)N[C@@H](C)CCC[C@@H](CO)N(CC(C)C)S(=O)(=O)c1ccc(CO)cc1 [Example G12] | c1
COC(=O)N[C@@H](Cc1ccccc1Cl)C(=O)N[C@@H](C)CCC[C@@H](CN)N(CCC(C)C)S(=O)(=O)c1ccc(N)cc1 [Example D4] | c3
CC[C@@H](CCC[C@@H](CO)N(CCC(C)C)S(=O)(=O)c1ccc(N)cc1)NC(=O)[C@@H](NC(=O)OC)C1c2ccccc2Oc2ccccc21 [Example F11] | c1
COC(=O)N[C@H](C(=O)NC(CO)CCCC(CO)N(CCC(C)C)S(=O)(=O)c1ccc(N)cc1)C(c1ccccc1)c1ccccc1 (single isomer, unassigned) [Example M1-7A] | c3
CCN([C@H](CO)CCC[C@@H](NC(=O)[C@@H](NC(=O)OC)C(c1ccccc1)c1ccccc1)C1CC1)S(=O)(=O)c1ccc(CO)cc1 [Example I5] | c2
CCC(CCC[C@@H](CO)N(CCC(C)C)S(=O)(=O)c1ccc(N)cc1)NC(=O)[C@H](C(c1ccccc1)c1ccccc1)N(C)C(=O)OC (mixture of isomers) [Example F12] | c3
C=C[C@@H](CCC[C@@H](CO)N(CCC(C)C)S(=O)(=O)c1ccc(CO)cc1)NC(=O)[C@@H](NC(=O)OC)C(c1ccccc1)c1ccccc1 [Example J10] | c1
CC[C@@H](CCC[C@@H](CO)N(CC(C)C)S(=O)(=O)c1ccc(CO)cc1)NC(=O)[C@@H](NC(=O)OC)C(c1ccc(F)cc1)c1ccc(F)cc1 [Example J20] | c2
COC(=O)N[C@H](C(=O)N[C@H](CCC[C@@H](CO)N(CCC(C)C)S(=O)(=O)c1ccc(N)c(F)c1)C(C)C)C(c1ccccc1)c1ccccc1 [Example D16] | c2
